Entries annotated with measured pKa
- experiment.notes: Experimental pKa by potentiometric titration
- Assay type: physicochemical
- recorded.conditions: value in parentheses, read-out: R^3 group pKa, experimental

- compound.smiles: "O=C(NCCN1CCCC1)c1cc(-c2ccc(CN3CCOCC3)cc2Cl)nc2ccc(F)cc12"
  pKa: 6.3
- compound.smiles: "O=C(NCCN1CCCC1)c1cc(-c2ccc(CN3CCOCC3)c(F)c2)nc2ccc(F)cc12"
  pKa: 6.1
- compound.smiles: "O=C(NCCN1CCCC1)c1cc(-c2ccc(CN3CCOCC3)cc2F)nc2ccc(F)cc12"
  pKa: 6.3

----------
Each item that follows carries a reported RLM Cli.
- experiment.notes: Intrinsic clearance (Cli) in rat liver microsomes
- Format: in vitro ADME
- recorded.conditions: rat liver microsome

- compound: "O=C(NCCN1CCCC1)c1cc(-c2ccc(CN3CCCC3=O)cc2)nc2ccc(F)cc12 [Compound 44]"
  result.units: "mL min^–1 g^–1"
  reported.relation: "="
  RLM Cli: 0.6
- compound: "O=C(NCCN1CCCC1)c1cc(NCCC2CCOCC2)nc2ccc(Cl)cc12 [Compound 30]"
  result.units: "mL min^–1 g^–1"
  reported.relation: "="
  RLM Cli: 0.8
- compound: "O=C(NCCN1CCCC1)c1cc(NCCCN2CCOCC2)nc2ccc(F)cc12 [Compound 25]"
  result.units: "mL min^–1 g^–1"
  reported.relation: "<"
  RLM Cli: 0.5
- compound: "O=C(NCCN1CCCC1)c1cc(-c2ccc(CN3CCS(=O)(=O)CC3)cc2)nc2ccc(F)cc12 [Compound 43]"
  result.units: "mL min^–1 g^–1"
  reported.relation: "="
  RLM Cli: 0.8
- compound: "O=C(NCCN1CCCC1)c1cc(-c2ccc(CN3CCOCC3)cc2F)nc2ccc(F)cc12 [Compound 41]"
  result.units: "mL min^–1 g^–1"
  reported.relation: "<"
  RLM Cli: 0.5

Values were extracted from paper PMC5108032.
